Tested on: sphingomyelin synthase
Assay: Inhibition of plasmodial sphingomyelin biosynthesis in intact infected erythrocytes (C6-NBD-ceramide to C6-NBD-sphingomyelin, TLC)
Format: cell-based, Plasmodium falciparum
Conditions: 5 μM of compound
Recorded [%] inhibition of sphingomyelin biosynthetic activity, one value per entry.
// note: answer is a bare numeric in %

Reference set, count: 3
In [3]: df
Out[3]:
                                   compound  result
0  CCCCCCCCCCCCCCC[C@H](O)[C@@H](N)CO (racemic) [dl-dihydrosphingosine]       4
1    CCCCCCCCCCCCC/C=C/[C@@H](O)[C@@H](N)CO       0
2             CN(C)CCCN1c2ccccc2CCc2ccccc21       0

Request: Assign [%] inhibition of sphingomyelin biosynthetic activity to the following record: CCN(CC)CCO[C@H]1CC[C@@]2(C)C(=CC[C@@H]3[C@@H]2CC[C@]2(C)C(=O)CC[C@@H]32)C1
Result: 0
